src = the antibiotic and cytotoxicity screens of Wong et al. (2023)

System: HepG2
Assay: cytotoxicity call (relative viability < 0.9)
Conditions: 10 µM
Out of some 39,000 compounds screened, about 3,300 (8.5%) were called active. The sample holds actives, similar compounds and a random draw of the others, so the mix is not that of the screen.
OBSERVED_PROPERTY: cytotoxicity call

[
  {
    "SUBSTANCE_SMILES": "C[C@@H]1CN([C@@H](C)CO)S(=O)(=O)c2ccc(C#CCC3CCCC3)cc2O[C@@H]1CN(C)C(=O)CN(C)C",
    "EXPERIMENTAL_VALUE": "active"
  },
  {
    "SUBSTANCE_SMILES": "C[C@H](CO)N1C[C@H](C)[C@@H](CN(C)C(=O)c2cnccn2)Oc2cc(C#CCC3CCCC3)ccc2S1(=O)=O",
    "EXPERIMENTAL_VALUE": "active"
  },
  {
    "SUBSTANCE_SMILES": "C[C@@H]1CN([C@H](C)CO)S(=O)(=O)c2ccc(C#CCC3CCCC3)cc2O[C@H]1CN(C)C(=O)CN(C)C",
    "EXPERIMENTAL_VALUE": "inactive"
  },
  {
    "SUBSTANCE_SMILES": "C[C@H]1CN([C@@H](C)CO)S(=O)(=O)c2ccc(C#CCC3CCCC3)cc2O[C@H]1CN(C)C(=O)CN(C)C",
    "EXPERIMENTAL_VALUE": "active"
  },
  {
    "SUBSTANCE_SMILES": "C[C@H](CO)N1C[C@H](C)[C@H](CN(C)C(=O)CN(C)C)Oc2cc(C#CCC3CCCC3)ccc2S1(=O)=O",
    "EXPERIMENTAL_VALUE": "inactive"
  },
  {
    "SUBSTANCE_SMILES": "C[C@@H]1CN([C@H](C)CO)C(=O)c2cc(NS(=O)(=O)c3ccc(F)cc3)ccc2O[C@H]1CN(C)S(=O)(=O)c1ccccc1",
    "EXPERIMENTAL_VALUE": "inactive"
  },
  {
    "SUBSTANCE_SMILES": "C[C@H]1CN([C@@H](C)CO)S(=O)(=O)c2ccc(C#CCC3CCCC3)cc2O[C@H]1CN(C)C(=O)c1cnccn1",
    "EXPERIMENTAL_VALUE": "inactive"
  }
]
